Test: reversal of MRP1-mediated doxorubicin resistance, pilot screen, H69AR cells, doxorubicin co-treatment (AID 601)
Details: H69AR cells + 2 uM doxorubicin, CellTiter-Glo, 72 h; measured here: viability with 2 uM doxorubicin; at 10 µM; stronger effect = lower value
// viability lookup, one value per entry

{"Compound": "COC(=O)c1[nH]c(C)c(/C(O)=C2\\C(=O)C(=O)N(CCN(C)C)C2c2ccccc2OC)c1C (configuration not stated)", "Result Unit": "%", "viability": 82.9}
{"Compound": "O=C(Cn1nc(-c2ccc(Cl)cc2)ccc1=O)NCCCN1CCN(Cc2ccccc2)CC1", "Result Unit": "%", "viability": 93.4}
{"Compound": "Cc1csc(NC(=O)CCS(=O)(=O)c2ccc(Br)cc2)n1", "Result Unit": "%", "viability": 75.9}
{"Compound": "CC1CC(=O)c2cnc(NCC3CCCO3)nc2C1 (configuration not stated)", "Result Unit": "%", "viability": 83}
{"Compound": "Cn1c(=O)c(NC(=O)c2ccccc2)c2n(c1=S)CCCCC2", "Result Unit": "%", "viability": 97.6}
{"Compound": "CCOC(=O)N1CCC(NC(=O)c2ccc(OC)c(CN3CC(=O)N4CCCC4C3=O)c2)CC1 (configuration not stated)", "Result Unit": "%", "viability": 85.9}
{"Compound": "Cc1cccc(C(=O)N(C)c2nnc(-c3ccncc3)s2)c1", "Result Unit": "%", "viability": 89.4}
{"Compound": "CC(=O)Nc1nnc(S(N)(=O)=O)s1", "Result Unit": "%", "viability": 84.6}
{"Compound": "S=C(c1ccc(N2CCOCC2)cc1)N1CCCCC1", "Result Unit": "%", "viability": 89.2}
{"Compound": "COc1cc2c(OC)cccc2cc1C(=O)O", "Result Unit": "%", "viability": 85.7}
{"Compound": "O=C(NC(C(=O)c1ccccc1)N1CCOCC1)c1cccs1 (configuration not stated)", "Result Unit": "%", "viability": 81}
{"Compound": "Cc1cccc(NC(=O)c2ccc(S(=O)(=O)N(C)C)cc2)n1", "Result Unit": "%", "viability": 91.4}
{"Compound": "CCN1CCN(C(=O)N[C@@H](C(=O)N[C@@H]2C(=O)N3[C@@H]2SC(C)(C)[C@@H]3C(=O)O)c2ccccc2)C(=O)C1=O", "Result Unit": "%", "viability": 105}
{"Compound": "CC1(C2(O)CC(c3ccccc3)ON2)CCCCC1 (configuration not stated)", "Result Unit": "%", "viability": 84.4}
{"Compound": "COc1ccc2c(c1)c1c(n2C(C)=O)C(OC(C)=O)=NCC1", "Result Unit": "%", "viability": 87.5}
{"Compound": "CCOC(=O)Cn1c(CN2CCOCC2)nc2c1c(=O)[nH]c(=O)n2C", "Result Unit": "%", "viability": 99.5}
{"Compound": "CCOc1ccccc1NC(=O)CSc1nnc2c(CC)c(C)nc(N)n12", "Result Unit": "%", "viability": 99.4}
{"Compound": "CCOC(=O)C1CCCN(c2nc3ccccc3nc2C(C#N)C(=O)NCc2ccccc2)C1 (configuration not stated)", "Result Unit": "%", "viability": 85.8}
{"Compound": "CCC1CCCCN1c1nc(-c2ccncc2)nc2ccccc12 (configuration not stated)", "Result Unit": "%", "viability": 55}
{"Compound": "CCCCN1C(=O)C2C(C(=O)Nc3cccc(OC)c3)C3C=CC2(O3)C1C(=O)NC1CCCCC1C (configuration not stated)", "Result Unit": "%", "viability": 78.2}
{"Compound": "COc1cccc(NC(=O)C2CCCN2C(=O)Nc2cccc(F)c2)c1 (configuration not stated)", "Result Unit": "%", "viability": 94}
{"Compound": "CCN(c1ccc2c(c1)OCO2)S(=O)(=O)c1cc(Br)cc2c1N(C(=O)C1CC1)CC2", "Result Unit": "%", "viability": 62}
